Tested on: A549
Experiment: Inhibition of cell viability (MTS), A549 (negative control line)
Type: cell-based
Conditions: Homo sapiens, A549, 96 h, A549 cells (negative control), 96 hours incubation
Kindly state EC50 for each of the entries shown.

# example entries with known answers
molecule: O=C(Nc1cn2nc(Cn3nnc4ccc(-c5cnn(CCO)c5)cc43)ccc2n1)C1CC1 [Compound 24]
system.tested: A549
EC50: > 50 µM
--
molecule: O=C(Nc1cn2nc(C(F)(F)c3nnc4ccc(-c5ccc(F)cc5)cn34)ccc2n1)C1CC1 [Compound 74]
system.tested: A549
EC50: 8 to 25 µM
--
molecule: Cn1cc(-c2ccc3nnc(Sc4ccc5nc(NC(=O)C6CC6)cn5n4)n3c2)cn1 [Compound 5]
system.tested: A549
EC50: > 50 µM
--
molecule: O=C(Nc1cn2nc(Cn3nnc4ccc(-c5cccnc5)cc43)ccc2n1)C1CC1 [Compound 16]
system.tested: A549
EC50: > 50 µM

We now examine a further molecule.
May I ask what EC50 has been recorded for COc1ccc(-c2ccc3nnc(C(C)c4ccc5nc(NC(=O)C6CC6)cn5n4)n3c2)cc1C (centres unmarked) [Compound 70] ? > 50 µM

// data source = patent US8178534B2
